Just for reference, PubChem BioAssay (NCI) is where these values come from.

Experiment: NCI Yeast Anticancer Drug Screen. Data for the rad50 strain (AID 155);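 further: 0% = growth of vehicle-only cultures of the same strain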
Settings: S. cerevisiae rad50 strain growth inhibition; at 50.0 µM (retest, dose inferred, filed as 5.0); stronger effect = higher value
About 79,000 compounds went through this panel and 15% of them were active in at least one assay; those are over-represented in the sample as a whole.
Each entry gets No if its growth inhibition stays under 90%, and Yes if its growth inhibition is 90% or above.

molecule	assignedClass
COc1ccc(/C=C/C(=O)c2ccccc2)cc1OC	No
O=C(O)c1ccccc1/C=N/N=C1c2ccccc2-c2ccccc21	No
CCOC(=O)C1N=[N+](c2ccccc2)C(=O)/C1=C\n1c(=S)[nH]c2ccc([N+](=O)[O-])cc21 (stereo unspecified)	Yes

Inquiry: Dear colleague, could you confirm whether O=C(O)Cc1cc(F)ccc1C(=O)O has growth inhibition at or above 90%?
Reply text: No

Inquiry: What do you get for Cc1cc(NCCCCCCCCNc2cc(C)nc3cc(N)ccc23)c2ccc(N)cc2n1 ?
Reply text: Yes

Inquiry: What do you get for CNCCCNc1c2ccccc2nc2cccc([N+](=O)[O-])c12 ?
Reply text: Yes

Inquiry: What do you get for O=[N+]([O-])c1ccc2c(c1)/C(=N/N=C1c3ccccc3Cc3ccccc31)c1cc([N+](=O)[O-])cc([N+](=O)[O-])c1-2 ?
Reply text: Yes

Inquiry: What do you get for CCCCC(CC)C(=O)[O][Sn]([CH2]CCC)([CH2]CCC)[O]C(=O)C(CC)CCCC (stereo unspecified) ?
Reply text: Yes

Inquiry: What do you get for Cc1ccc2c(c1)C1(SC(C)C(=O)N1c1ccc(Cl)cc1)C(=O)N2 (stereo unspecified) ?
Reply text: Yes

Inquiry: What do you get for COc1cc(/C=N/Nc2nnc3c4ccccc4c4ncccc4c3n2)cc(OC)c1OC ?
Reply text: No

Inquiry: What do you get for CCCCCCCCCCCC(O)S(=O)(=O)O (stereo unspecified) ?
Reply text: No

Inquiry: What do you get for CC12C(=O)OC(=O)C(c3ccccc31)c1ccccc12 ?
Reply text: No

Inquiry: What do you get for CN(C)Cc1cc(N=Nc2ccc(Cl)cc2)ccc1OC(=O)c1ccccc1 ?
Reply text: No

Inquiry: What do you get for CC(C)(C)C1=CC(=CC=C2C=CN(CCCCCCCCCCCO)C=C2)C=C(C(C)(C)C)C1=O ?
Reply text: Yes

Inquiry: What do you get for O=C1C=C(N2CCN(c3ccccn3)CC2)C(=O)c2c(O)ccc(O)c21 ?
Reply text: Yes

Inquiry: What do you get for Cc1cc(=O)oc2c(C)c3occc(=O)c3cc12 ?
Reply text: No

Inquiry: What do you get for O=C(NO)Nc1cc(Cl)cc(Cl)c1 ?
Reply text: Yes

Inquiry: What do you get for CN1C(=O)c2ccc3ccccc3c2C1=O ?
Reply text: No

Inquiry: What do you get for CCOC(=O)c1[nH]cc(C)c1-c1cccn1-c1ccc(Cl)cc1[N+](=O)[O-] ?
Reply text: No

Inquiry: What do you get for CN(CCN(C)Cc1ccccc1)Cc1ccccc1 ?
Reply text: No

Inquiry: What do you get for CCC1(OC(=O)CN2CCN(CCO)CC2)C(=O)OCc2c1cc1n(c2=O)Cc2cc3ccccc3nc2-1 (stereo unspecified) ?
Reply text: No

Inquiry: What do you get for CCOC(=O)c1[nH]n(-c2ccccc2)c(=O)c1C=NC(=S)C(N)=S ?
Reply text: No

Inquiry: What do you get for CCCCCCCCCCCC1N=C(N)NC(CCCO)=C1C(=O)OC (stereo unspecified) ?
Reply text: Yes

====

Test: NCI Yeast Anticancer Drug Screen. Data for the rad50EPP+ strain (AID 151);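 further: 0% = growth of vehicle-treated control cultures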
Conditions: S. cerevisiae rad50 mutant strain, at 1.2 µM, stronger effect = higher value
About 79,000 compounds went through this panel and 15% of them were active in at least one assay; those are over-represented in the sample as a whole. Activity calls are given as the source filed them. Cut-off read from the data, not from the text of the source: active = growth inhibition above about 70%; inactive = the rest.
Field: growth inhibition. Provide a value for each of the compounds that follow.

Below, 5 compounds whose answers are already recorded.
compound	growth inhibition
CCCCCCCCCCCCCCCCCC(=O)NCCCN(C)C	-37% (inactive)
CCCCCCCCCCCC1=NCCO1	4% (inactive)
CCOC(=O)c1[nH]n(-c2ccccc2)c(=O)c1C=NC(=S)C(N)=S	-3% (inactive)
CC[N+](CC)(CC)c1ccccc1	-8% (inactive)
CN1C(=O)c2ccc3ccccc3c2C1=O	8% (inactive)

// for each compound below, give its growth inhibition
1. Cc1c(-c2ccccn2)ccc2ccccc12
2. CCCCCCCCCCCCCCCCOP(=O)(O)OCC(N)C(=O)O (configuration not stated)
3. CC1SC2(C(=O)Nc3ccc(Cl)cc32)N(c2ccc(Cl)cc2)C1=O (configuration not stated)
4. CN(C)c1ccc2c(SCC(=O)OCC(=O)[C@@]3(O)CC[C@H]4[C@@H]5CCC6=CC(=O)C=C[C@]6(C)[C@H]5C(=O)C[C@@]43C)c3ccc(N(C)C)cc3nc2c1
5. C=C1CCC(O)C/C1=C/C=C1\CCCC2(C)C1CCC2C(C)CCCC(C)C (configuration not stated)
6. O=[N+]([O-])c1ccc(N/N=C/Cc2ccccc2)c([N+](=O)[O-])c1
7. COC(=O)C1=C(C(=O)OC)C(C(=O)OC)C(C(=O)OC)C(C(=O)OC)(C(=O)OC)C(C(=O)OC)=C1C(=O)OC (configuration not stated)
8. Nc1ccc2c(c1)C(=O)c1ccc(F)cc1-2

Reply text:
1: -3% (inactive); 2: -17% (inactive); 3: -2% (inactive); 4: 1% (inactive); 5: -16% (inactive); 6: -2% (inactive); 7: -4% (inactive); 8: 13% (inactive)

// for each compound below, give its growth inhibition
1. CCC(C)NC1=NCC(C)S1 (configuration not stated)
2. O/N=C\c1c(O)ccc2ccccc12
3. Cc1ccccc1N=Cc1cc(Cl)ccc1O
4. CSc1nc(C)c(CCOC(C)=O)c(N=P(c2ccccc2)(c2ccccc2)c2ccccc2)n1

Reply text:
["-40% (inactive)", "2% (inactive)", "3% (inactive)", "12% (inactive)"]

====

Field: growth inhibition. Provide a value for each of the molecules that follow.
Experiment: NCI Yeast Anticancer Drug Screen. Data for the rad18 strain (AID 177)
Conditions: S. cerevisiae rad18 mutant growth inhibition; at 3.7 µM; stronger effect = higher value
About 79,000 compounds went through this panel and 15% of them were active in at least one assay; those are over-represented in the sample as a whole.
Give bare numbers, in %.

Below, 8 molecules whose answers are already recorded.
molecule	val
COc1cc(/C=C2\CCC/C(=C\c3ccc(O)c(OC)c3)C2=O)ccc1O	5
CCCCOC(=O)Nc1ccc(C)c(NC(=O)OCCCC)c1	-8
N=C1N=Nc2nc(C3(c4nc5n(c4O)C(=N)N=N5)Cc4ccccc4C3=O)c(O)n21 (stereo not given)	11
COc1ccc2c(c1)n([O-])c1ccccc1[n+]2=O	75
O=C(O)c1ccccc1/C=N/N=C1c2ccccc2-c2ccccc21	-1
CCO/C(C)=C(/C#N)C(N)=S	-1
CN(C)CCNc1ccc2ncnc3c2c1C(=O)c1ccccc1-3	12
C[CH2][Sn]([CH2]C)([O]C(=O)C(N)Cc1ccccc1)[O]C(=O)C(N)Cc1ccccc1 (stereo not given)	2

// for each molecule below, give its growth inhibition
1. CCCCCOC(=S)SC(=O)OCC
2. Cc1cc(C)nc(NS(=O)(=O)c2ccc(Nc3c4ccccc4nc4c(C(=O)NCCO)cccc34)cc2)n1

Reply text:
[5, -1]

====

Test: NCI Yeast Anticancer Drug Screen. Data for the rad50 strain (AID 155);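 further: 0% = growth of vehicle-only cultures of the same strain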
Settings: S. cerevisiae rad50 strain growth inhibition; at 50.0 µM (retest, dose inferred, filed as 5.0); stronger effect = higher value
This is part of a sample that, as a whole, favours compounds with a hit. Of some 79,000 tested, about 15% had one in any assay.
Field: growth inhibition. Provide a value for each of the molecules that follow.
Answers are plain numbers, in %.

Below, 3 molecules whose answers are already recorded.
molecule	measurementUnits	val
NNC(=O)CCc1cc2ccccc2c2ccccc12	%	99
CCO/C(C)=C(/C#N)C(N)=S	%	67
C[Si](C)(C)/C=C/CCNC(C#N)c1ccccc1 (centres undefined)	%	99

// for each molecule below, give its growth inhibition
1. Cc1csc(=S)n1OC(=O)NC1CCCCC1
2. CCN(CC)CCN(C)CCc1ccc(Br)cc1
3. Oc1cccc2cc(Cl)cnc12
4. O=C(NCCCNCCN1C(=O)c2cccc3cc([N+](=O)[O-])cc(c23)C1=O)c1cc(-c2ccccc2)nc2ccccc12
5. CN(C)CCNC(=O)c1cccc2c1Oc1c(cccc1[N+](=O)[O-])O2

Reply text:
1: 98; 2: 11; 3: 65; 4: 98; 5: 72

====

Field: growth inhibition. Provide a value for each of the molecules that follow.
Assay: NCI Yeast Anticancer Drug Screen. Data for the rad50 strain (AID 155);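 further: 0% = growth of vehicle-only cultures of the same strain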
Conditions: S. cerevisiae rad50 strain growth inhibition; at 1.2 µM; stronger effect = higher value
Compounds without any hit were thinned out: in the full panel of roughly 79,000, 15% have a hit.
Numbers only, in %.

Below, 8 molecules whose answers are already recorded.
molecule	growth inhibition (%)
CC1=C(SCc2ccccc2)C(=O)c2ccccc2C1=O	-12
c1ccc2cc(NCNc3ccc4ccccc4c3)ccc2c1	1
CCOC(=O)[C@H]1Nc2ccc(OC)cc2C2c3ccccc3CC21 (stereo partly drawn)	-21
O=C(c1ccc([N+](=O)[O-])cc1)C1N=NCC1c1ccccc1 (stereo not drawn)	4
O=C(C[n+]1ccc2ccccc2c1)c1ccc2ccccc2c1	-20
CCOc1ccc(NC(=O)C2=C(C)NC(C)=C(C(=O)Nc3ccc(OCC)cc3)C2c2cccc([N+](=O)[O-])c2)cc1	-3
CCCOC(=O)C(F)C(Br)C(=O)OCCC (stereo not drawn)	58
Clc1ccc(NCNC2Nc3ccccc3N2)cc1Cl	-1

// for each molecule below, give its growth inhibition
1. C[CH2][Sn]([CH2]C)([O]C(=O)C(N)Cc1ccccc1)[O]C(=O)C(N)Cc1ccccc1 (stereo not drawn)
2. O=[N+]([O-])c1cc(Cl)cnc1Br
3. COC(=O)/C=C(/C(=O)OC)C(Cl)(Cl)Cl
4. Cc1ccccc1N=C(NO)c1ccccc1
5. CC12C(=O)OC(=O)C(c3ccccc31)c1ccccc12
6. CCCCCCCCCCCC1=NCCO1
7. O=c1ccc(=O)n(-c2ccccc2)[nH]1

Reply text:
1: 10; 2: 28; 3: 1; 4: 8; 5: -18; 6: 9; 7: -14
